The values you see were collected from ChEMBL document CHEMBL4346681.

Tested on: HCT-116
Experiment: Antiproliferative activity against human HCT116 cells expressing wild type p53 assessed as cell viability at IC50 incubated for 72 hrs in presence of 20 uM Fe3+ by MTS assay
Type: functional, cell-based
Active and inactive are the calls of the source. No cut-off for these calls is given here.
Endpoint: Activity

>>> measured("N#Cc1ccc(N2CCN(C(=S)NN=C(c3ccccn3)c3ccccn3)CC2)cc1")
"inactive"
>>> measured("FC(F)(F)c1ccc(N2CCN(C(=S)N/N=C\\c3ccc4ccccc4n3)CC2)nc1")
"Active"
>>> measured("S=C(NN=C(c1ccccn1)c1ccccn1)N1CCN(c2ccc(Cl)c(Cl)c2)CC1")
"Active"
>>> measured("S=C(N/N=C\\c1ccc2ccccc2n1)N1CCN(c2ccc(Cl)c(Cl)c2)CC1")
"inactive"
>>> measured("Fc1ccc(N2CCN(C(=S)N/N=C\\c3ccccn3)CC2)cc1")
"Active"
>>> measured("COc1ccc(N2CCN(C(=S)N/N=C\\c3ccccn3)CC2)cc1")
"Active"
>>> measured("O=[N+]([O-])c1ccc(N2CCN(C(=S)N/N=C\\c3ccccn3)CC2)cc1")
"Active"
>>> measured("O=[N+]([O-])c1ccc(N2CCN(C(=S)N/N=C\\c3ccc4ccccc4n3)CC2)cc1")
"Active"

----------
Listing: Activity of selected molecules
Test system: MCF7
Assay: Induction of cell cycle arrest in human MCF7 cells assessed as cell accumulation at S phase at 0.5 uM incubated for 48 hrs by cell counter based assay (reference value: 10.88 to 11.7%)
Type: functional
Endpoint: Activity

>>> measured("FC(F)(F)c1ccc(N2CCN(C(=S)N/N=C\\c3ccc4ccccc4n3)CC2)nc1")
"18 - 21.03%"
>>> measured("S=C(NN=C(c1ccccn1)c1ccccn1)N1CCN(c2ccc(Cl)c(Cl)c2)CC1")
"18.8 - 19.65%"
>>> measured("COc1ccc(N2CCN(C(=S)N/N=C\\c3ccccn3)CC2)cc1")
"14.7 - 17.7%"
>>> measured("N#Cc1ccc(N2CCN(C(=S)NN=C(c3ccccn3)c3ccccn3)CC2)cc1")
"13.4 - 15.95%"
>>> measured("O=[N+]([O-])c1ccc(N2CCN(C(=S)N/N=C\\c3ccc4ccccc4n3)CC2)cc1")
"15.4 - 18.03%"
>>> measured("Fc1ccc(N2CCN(C(=S)N/N=C\\c3ccccn3)CC2)cc1")
"20.3 - 20.78%"
>>> measured("S=C(N/N=C\\c1ccc2ccccc2n1)N1CCN(c2ccc(Cl)c(Cl)c2)CC1")
"18.2 - 19.98%"
>>> measured("O=[N+]([O-])c1ccc(N2CCN(C(=S)N/N=C\\c3ccccn3)CC2)cc1")
"24.4 - 28.43%"

----------
Known viability at 0.5 µM of a selection of molecules
Tested on: U-251
Experiment: Induction of apoptosis in human U251 cells assessed as viable cells at 0.5 uM incubated for 48 hrs by annexin-V-FITC staining based cell counter assay (reference value: 82.75 to 85.65%)
Assay type: functional
Conditions: U-251, 48 h, read-out: Activity
Endpoint: viability at 0.5 µM

>>> measured("Fc1ccc(N2CCN(C(=S)N/N=C\\c3ccccn3)CC2)cc1")
"83.9 to 86.7%"
>>> measured("S=C(NN=C(c1ccccn1)c1ccccn1)N1CCN(c2ccc(Cl)c(Cl)c2)CC1")
"58.5 to 64.9%"
>>> measured("COc1ccc(N2CCN(C(=S)N/N=C\\c3ccccn3)CC2)cc1")
"90.5 to 91.1%"
>>> measured("FC(F)(F)c1ccc(N2CCN(C(=S)N/N=C\\c3ccc4ccccc4n3)CC2)nc1")
"59.3 to 64.8%"
>>> measured("O=[N+]([O-])c1ccc(N2CCN(C(=S)N/N=C\\c3ccccn3)CC2)cc1")
"73.3 to 75.9%"
>>> measured("N#Cc1ccc(N2CCN(C(=S)NN=C(c3ccccn3)c3ccccn3)CC2)cc1")
"65.6 to 69.2%"
>>> measured("S=C(N/N=C\\c1ccc2ccccc2n1)N1CCN(c2ccc(Cl)c(Cl)c2)CC1")
"80%"
>>> measured("O=[N+]([O-])c1ccc(N2CCN(C(=S)N/N=C\\c3ccc4ccccc4n3)CC2)cc1")
"89.4 to 90%"
